- Tested on: DMS-273
- Test: NCI tumour cell line growth inhibition, 48 h
The source made the active and inactive calls. Cut-off read from the data, not from the text of the source: active = GI50 up to about 1.1 µM and inactive = higher.
Outcome codes: true = active, false = inactive

| Compound | Assigned category |
| --- | --- |
| O=C(N/C(=C\c1ccc(/C=C(\NC(=O)c2ccccc2)c2nc3cc([N+](=O)[O-])ccc3[nH]2)cc1)c1nc2cc([N+](=O)[O-])ccc2[nH]1)c1ccccc1 | false |
| C/C(=N\NC(=N)N)C(CN1CCOCC1)C(c1ccccc1)c1c(O)c2ccccc2oc1=O (stereo not given) | false |
| OC1CC1Sc1ccccc1 (stereo not given) | false |
| COc1cccc2c1[C@]1(O)C(O)CCCC21 (stereo not given in full) | false |
| CC(C)(CN1CCOCC1)C(=O)/C=C/c1ccc(/C=C/C(=O)C(C)(C)CN2CCOCC2)cc1 | true |
